B1: ZNF649 (parent)
chain: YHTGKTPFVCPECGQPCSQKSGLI

- Variants of: B1
- Assay: protein stability index of a GFP-peptide fusion (GPS, HEK-293T) (PSI 1-6); higher = more stable;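 also: lentivirally expressed fusions sorted by FACS into six bins by GFP to DsRed ratio, PSI derived from sequencing read proportions per bin multiplied by bin number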
- Test context: c terminus: a fixed tail appended
Metric: protein stability index

Y1W :: 2.48
P16T :: 1.34
K5H :: 1.86
P16A :: 2.79

Assign protein stability index to the following record: T6I
2.22

Ref: the supplement of paper PMC10567573
